inhibition for assorted compounds
Assay: dynein cargo transport inhibitors, GR-EGFP translocation, confirmation, imaging, high-content imaging, GR-EGFP cells (AID 463116);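 note: dexamethasone at 1 µM final in well for 30 min; nuclear minus cytoplasmic GR-EGFP mean intensity difference in channel 2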
Stated Conditions: 3617.4 GR-EGFP nuclear translocation imaging, dexamethasone-induced, at 20 µM; stronger effect = higher value
Hit rate of the full screen: of about 1,000 compounds, about 710 (71%) were called active. Not shown: some 7% with an inconclusive outcome. The set was probably picked from earlier hits. A selection follows.
Give just the number in %; leave the unit off.

The following compounds have reported results that may help.
COc1cc2c(cc1O)C(SC)=NC(C)(C)C2: 79.1
O=C(/C=C/Sc1ncn[nH]1)c1ccc(Cl)cc1: 69.1
O=C(CCl)Nc1cccc(CP(=O)(c2ccccc2)c2ccccc2)c1: 63.6
Oc1c(C=Nc2cccc3nsnc23)ccc2ccccc12: 23.9
Cc1[nH]c(=O)c(C(=O)/C=C/c2ccccc2)c2c1CCCC2: 71.9
CC(C)(C)C1C/C(=C/c2ccco2)C(=O)/C(=C/c2ccco2)C1 (stereo unspecified): 184
COC(=O)/C=C\C(=O)Nc1cccc([N+](=O)[O-])c1: 77.7
CCOC(=O)C(=Cc1ccccc1OC)C(=O)OCC: 82.2
COc1ccc(NC(=O)/C(Cl)=C(/Cl)S(=O)Cc2ccc(C)cc2)cn1 (stereo unspecified): 76.8
N#C/C(=C/c1ccc(N2CCCCC2)o1)C(=O)NCCc1c[nH]c2ccccc12: 96.8

I have this compound here, C[C@@H]1C[C@@H]2O[C@H]2/C=C\C=C\C(=O)Cc2c(Cl)c(O)cc(O)c2C(=O)O1 , and I need its recorded inhibition. 90.1

Please answer likewise for Nc1ccccc1SC(C[N+](=O)[O-])c1ccccc1 (stereo unspecified) 71.2

Please answer likewise for Nc1c(C(=O)c2cccs2)sc2nsc(SCCN3CCCCC3)c12 91.8

Please answer likewise for COc1ccc(-c2cc(C(F)(F)F)nc(S(C)(=O)=O)n2)cc1OC 51.4

Please answer likewise for O=C1C=C(c2ccc(Cl)cc2)C(=O)N1Nc1ccccc1 81

Please answer likewise for Cc1cc(-c2n[nH]c(=S)n2/N=C/C(Br)=C/c2ccccc2)n[nH]1 80.8
